# protocol.text: ORAC assay with fluorescein probe (ORACFL), peroxyl radical scavenging assay
# Assay type: biochemical
# condition.description: chemicals, Table 1
Would you mind telling me the reported Ratio (ORACFL/ORACB-PE) of each entry?
Enter a number only.

Can you look up the measured Ratio (ORACFL/ORACB-PE) of O=c1c(-c2ccc(O)cc2)coc2cc(O)cc(O)c12 for me?
2.57

Need Ratio (ORACFL/ORACB-PE), item N[C@@H](CCC(=O)N[C@@H](CS)C(=O)NCC(=O)O)C(=O)O
1.94

Requested read-out: Ratio (ORACFL/ORACB-PE). Entry: O=C(O)/C=C/c1ccc(O)c(O)c1
3.12

I am curious: what Ratio (ORACFL/ORACB-PE) value has been reported for C[C@@H]1O[C@@H](Oc2c(-c3ccc(O)c(O)c3)oc3cc(O)cc(O)c3c2=O)[C@H](O)[C@H](O)[C@H]1O ?
2.15

Value lookup for Ratio (ORACFL/ORACB-PE); key = O=c1c(O)c(-c2ccc(O)c(O)c2)oc2cc(O)cc(O)c12
2.11

Please look up its Ratio (ORACFL/ORACB-PE): O=C1O[C@H]([C@@H](O)CO)C(O)=C1O
2.21
